Species on record: Sus scrofa
Test summary: Inhibition of porcine pepsin activity assessed as hydrolysis of 0.5% hemoglobin solution substrate after 1 hr
Could you please mark Satisfied for values of ID50 below 0.1 µg/mL and Not satisfied for values at or above it?

Input line: Item CC(C)C[C@@H](NC(=O)[C@@H](NC(=O)[C@@H](NC(=O)OCc1ccccc1)C(C)C)C(C)C)[C@@H](O)CC(=O)O : ID50 beneath 0.1 µg/mL, strictly?
Output line: Not satisfied

Input line: Item CC(C)C[C@H](NC(=O)[C@@H](NC(=O)[C@@H](NC(=O)OCc1ccccc1)C(C)C)C(C)C)[C@H](O)CC(=O)O : ID50 beneath 0.1 µg/mL, strictly?
Output line: Not satisfied

Input line: Item CC(C)CC(=O)N[C@H](C(=O)N[C@H](C(=O)N[C@@H](CC(C)C)[C@@H](O)CC(=O)N[C@@H](C)C(=O)N[C@@H](CC(C)C)[C@@H](O)CC(=O)O)C(C)C)C(C)C : ID50 beneath 0.1 µg/mL, strictly?
Output line: Satisfied

Input line: Item CC(C)C[C@@H](NC(=O)[C@@H](NC(=O)[C@@H](NC(=O)OCc1ccccc1)C(C)C)C(C)C)[C@H](O)CC(=O)O : ID50 beneath 0.1 µg/mL, strictly?
Output line: Not satisfied

---

Kindly supply the reported log10 ID50 values for the records listed here.
Species on record: Sus scrofa
Test summary: Inhibition of porcine pepsin activity assessed as hydrolysis of N-Cbz-L-Pheylalanyl-L-Tyrosine substrate
In our notation, the value equals log10 of ID50 in µg/mL.

Notebook: CC(C)C[C@H](NC(=O)[C@@H](NC(=O)[C@@H](NC(=O)OCc1ccccc1)C(C)C)C(C)C)[C@H](O)CC(=O)O , log10 ID50 read as 1.08

Notebook: CC(C)C[C@@H](NC(=O)[C@@H](NC(=O)[C@@H](NC(=O)OCc1ccccc1)C(C)C)C(C)C)[C@@H](O)CC(=O)O , log10 ID50 read as 2.34

Notebook: CC(C)CC(=O)N[C@H](C(=O)N[C@H](C(=O)N[C@@H](CC(C)C)[C@@H](O)CC(=O)N[C@@H](C)C(=O)N[C@@H](CC(C)C)[C@@H](O)CC(=O)O)C(C)C)C(C)C , log10 ID50 read as 0.30

Notebook: CC(C)C[C@@H](NC(=O)[C@@H](NC(=O)[C@@H](NC(=O)OCc1ccccc1)C(C)C)C(C)C)[C@H](O)CC(=O)O , log10 ID50 read as 1.62

Notebook: CC(C)C[C@H](NC(=O)[C@@H](NC(=O)[C@@H](NC(=O)OCc1ccccc1)C(C)C)C(C)C)[C@@H](O)CC(=O)O , log10 ID50 read as 0.00
